Where do the numbers come from? From patent US20250270343A1.

Attribute: Kd
- Assay System: T1, soluble human GPNMB (recombinant extracellular domain) (human, UniProt Q14956 23-498)
- T1 construct: also called huGPNMB; recombinant human GPNMB extracellular domain; not shown: C-terminal polyhistidine or Avi-His tag
- T1 sequence: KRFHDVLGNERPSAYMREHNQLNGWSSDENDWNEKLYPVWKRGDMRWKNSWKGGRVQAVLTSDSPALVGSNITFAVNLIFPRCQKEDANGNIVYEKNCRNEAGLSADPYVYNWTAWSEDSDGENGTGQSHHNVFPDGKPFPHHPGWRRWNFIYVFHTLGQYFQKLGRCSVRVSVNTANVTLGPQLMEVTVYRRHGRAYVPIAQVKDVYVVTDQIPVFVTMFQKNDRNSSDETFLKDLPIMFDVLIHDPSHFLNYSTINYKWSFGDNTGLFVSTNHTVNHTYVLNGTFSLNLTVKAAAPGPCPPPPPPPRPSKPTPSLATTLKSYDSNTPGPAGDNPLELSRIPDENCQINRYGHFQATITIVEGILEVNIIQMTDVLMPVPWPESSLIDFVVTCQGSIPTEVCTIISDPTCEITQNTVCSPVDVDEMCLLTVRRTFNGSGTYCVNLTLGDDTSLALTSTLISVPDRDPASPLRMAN
- Assay Notes: SPR Biacore, IgG captured
Readout Kind: Kd (nM)

[[record]]
binder = "anti-GPNMB antibody GPN-86 (antibody, V domains shown) VH: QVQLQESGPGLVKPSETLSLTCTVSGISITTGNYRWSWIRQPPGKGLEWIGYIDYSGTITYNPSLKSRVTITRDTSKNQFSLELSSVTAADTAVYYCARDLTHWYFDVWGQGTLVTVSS VL: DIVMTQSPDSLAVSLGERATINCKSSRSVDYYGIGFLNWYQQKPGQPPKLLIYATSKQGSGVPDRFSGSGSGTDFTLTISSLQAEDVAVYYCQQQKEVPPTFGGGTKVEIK"
readout_kind = "Kd"
test_result = 4.5

[[record]]
binder = "anti-GPNMB antibody GPN-96 (antibody, V domains shown) VH: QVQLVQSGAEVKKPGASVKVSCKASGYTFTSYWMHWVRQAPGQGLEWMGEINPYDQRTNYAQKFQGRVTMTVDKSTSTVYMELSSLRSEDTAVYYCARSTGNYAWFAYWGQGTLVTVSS VL: DIVMTQSPDSLAVSLGERATINCKASQDVSPSLAWYQQKPGQPPKLLIYRASYRYTGVPDRFSGSGSGTDFTLTISSLQAEDVAVYYCQQHYSIPLTFGGGTKVEIK"
readout_kind = "Kd"
test_result = 2.5

